Reported T/C values for the following molecules.
- System: P388 leukemia ip, CD2F1 mice, survival T/C
- test description: NCI In Vivo Anticancer Drug Screen. Data for tumor model P388 Leukemia (intraperitoneal) in CD2F1 (CDF1) mice
- experimental setup: endpoint: median survival time; dose: 50.0 mg/kg/injection; schedule: Q01DX005 (ip); vehicle: saline with Tween-80; higher = longer survival
- Experimental: The antitumor activity of compounds was measured in mice bearing transplantable tumors. Survival or tumor size were measured and the results are expressed as the measurement made in the treated group (T) divided by the measurement made in the vehicle treated control group (C). The tumor model used in this assay is P388 Leukemia (intraperitoneal) in CD2F1 (CDF1) mice
Toxic doses and inconclusive results are not listed. Square brackets hold non-standard residues; d marks the D form. Peptide text beside a SMILES is read from it. * marks the point of attachment. Cbz = O=C(OCc1ccccc1)*; Nva = CCC[CH](N)C(=O)O
quantity measured: T/C

{"columns": ["molecule", "study target", "meas value"],
 "data": [
  ["CCCC(NC(=O)C(Cc1ccccc1)NC(=O)OCc1ccccc1)C(=O)O (stereo not drawn) (Cbz-Phe-[Nva]-OH; configuration not given here)", "P388 leukemia ip, CD2F1 mice, survival T/C", "104 % of control"],
  ["OC(C[n+]1ccccc1)c1ccc2c(c1)OCO2 (stereo unspecified)", "P388 leukemia ip, CD2F1 mice, survival T/C", "106 % of control"],
  ["COC(=O)N1C=CC2ON=C(OC)C2C1c1ccccc1 (stereo unspecified)", "P388 leukemia ip, CD2F1 mice, survival T/C", "98 % of control"],
  ["C=CCCCC1(c2ccccc2)C(=O)Oc2ccccc21 (stereo unspecified)", "P388 leukemia ip, CD2F1 mice, survival T/C", "98 % of control"],
  ["Nc1ccc(SSc2ccc(Nc3ccnc4cc(Cl)ccc34)cc2)cc1", "P388 leukemia ip, CD2F1 mice, survival T/C", "92 % of control"],
  ["Cc1c(-c2cnccn2)ssc1=S", "P388 leukemia ip, CD2F1 mice, survival T/C", "103 % of control"],
  ["CCn1c2ccc(N=C=O)cc2c2c3[nH]c(=O)c4cccn4c3ccc21", "P388 leukemia ip, CD2F1 mice, survival T/C", "95 % of control"],
  ["Nc1nc(N)c2c(n1)CCC(C(=O)Nc1ccc(Cl)cc1)C2 (stereo unspecified)", "P388 leukemia ip, CD2F1 mice, survival T/C", "94 % of control"],
  ["COC(=O)c1ccc(COc2ccc([N+](=O)[O-])cc2Cl)cc1", "P388 leukemia ip, CD2F1 mice, survival T/C", "100 % of control"],
  ["O=C1Nc2ccccc2C2CCCCC12 (stereo unspecified)", "P388 leukemia ip, CD2F1 mice, survival T/C", "107 % of control"],
  ["O=C(O)C(=Cc1c2ccccc2cc2ccccc12)C(=O)O", "P388 leukemia ip, CD2F1 mice, survival T/C", "95 % of control"],
  ["N/C(=N\\OC(=O)NC(Cl)=C(Cl)Cl)c1cc(C(F)(F)F)cc(C(F)(F)F)c1", "P388 leukemia ip, CD2F1 mice, survival T/C", "102 % of control"],
  ["CS(=O)(=O)OCc1cc(=O)c(OS(C)(=O)=O)co1", "P388 leukemia ip, CD2F1 mice, survival T/C", "108 % of control"],
  ["CCCC(Nc1nncs1)Nc1nncs1", "P388 leukemia ip, CD2F1 mice, survival T/C", "101 % of control"],
  ["CC(=O)N1C(=O)CC23c4ccccc4C(=O)N2CCCN13 (stereo unspecified)", "P388 leukemia ip, CD2F1 mice, survival T/C", "99 % of control"],
  ["O=C1CS(=O)(=O)C(c2ccccc2Cl)N1N1C(=O)CS(=O)(=O)C1c1ccccc1Cl (stereo unspecified)", "P388 leukemia ip, CD2F1 mice, survival T/C", "96 % of control"],
  ["NCCCCC(C(=O)NC(Cc1ccc(O)cc1)C(=O)NC(CO)C(=O)OCc1ccc([N+](=O)[O-])cc1)N(C(=O)OCc1ccccc1)C(=O)OCc1ccccc1 (stereo unspecified)", "P388 leukemia ip, CD2F1 mice, survival T/C", "101 % of control"],
  ["CCCCN(CC(O)c1cc2c(c3ccccc13)CCCC2)c1ccc(OC)cc1 (stereo unspecified)", "P388 leukemia ip, CD2F1 mice, survival T/C", "115 % of control"],
  ["CCOC(=O)/C(C#N)=C/c1ccc(-c2cc(C(F)(F)F)cc(C(F)(F)F)c2)o1", "P388 leukemia ip, CD2F1 mice, survival T/C", "92 % of control"],
  ["CCN(CC)CCNc1ncnc2c1cnn2C", "P388 leukemia ip, CD2F1 mice, survival T/C", "99 % of control"],
  ["CO/C=C(/C#N)S(=O)(=O)/C(C#N)=C/OC", "P388 leukemia ip, CD2F1 mice, survival T/C", "100 % of control"],
  ["C=CCOc1cc2c(cc1C/C=C/c1ccccc1)OCO2", "P388 leukemia ip, CD2F1 mice, survival T/C", "102 % of control"],
  ["C=CCc1ccc(OCCN(CC)CC)c(OC)c1", "P388 leukemia ip, CD2F1 mice, survival T/C", "98 % of control"],
  ["Cc1ccccc1N=C1SCC(=O)N1c1ccccc1C", "P388 leukemia ip, CD2F1 mice, survival T/C", "96 % of control"],
  ["O=C(O)c1cc(-n2c(-c3ccccc3)cc3c2CCc2ccccc2-3)ccc1O", "P388 leukemia ip, CD2F1 mice, survival T/C", "109 % of control"],
  ["Cc1ccc(N2CC(=O)N3CCCC(C)N3C(=O)C2)cc1 (stereo unspecified)", "P388 leukemia ip, CD2F1 mice, survival T/C", "99 % of control"],
  ["O/N=C/c1cnns1", "P388 leukemia ip, CD2F1 mice, survival T/C", "105 % of control"],
  ["O=C(N/N=C\\c1cccc2ccccc12)C(=O)N/N=C/c1cccc2ccccc12", "P388 leukemia ip, CD2F1 mice, survival T/C", "94 % of control"],
  ["O=P1(Nc2ccc(Cl)cc2)N(Cc2ccc(Cl)cc2)CCCN1Cc1ccc(Cl)cc1", "P388 leukemia ip, CD2F1 mice, survival T/C", "93 % of control"],
  ["N#Cc1ccc(NN=NCCCCl)cc1", "P388 leukemia ip, CD2F1 mice, survival T/C", "100 % of control"],
  ["CC1=CC2(C)C=C(C)C3(OC(c4ccccc4)=C(C#N)C3=N2)C1=O (stereo unspecified)", "P388 leukemia ip, CD2F1 mice, survival T/C", "103 % of control"],
  ["CCC1C=Cc2ccccc2NC1 (stereo unspecified)", "P388 leukemia ip, CD2F1 mice, survival T/C", "100 % of control"],
  ["CS(=O)(=O)O/C=C1\\CCc2ccccc2C1=O", "P388 leukemia ip, CD2F1 mice, survival T/C", "98 % of control"],
  ["COc1ccc(CCNC2=CC(=O)CCC2)cc1OC", "P388 leukemia ip, CD2F1 mice, survival T/C", "101 % of control"],
  ["O=C(O)c1c(Cl)c(Cl)c(Cl)c(Cl)c1-c1c2cc(Br)c(=O)c(Br)c-2oc2c(Br)c(O)c(Br)cc12", "P388 leukemia ip, CD2F1 mice, survival T/C", "89 % of control"],
  ["COc1nc(N=[N+]=[N-])nc(-c2c(OC)ccc3ccccc23)n1", "P388 leukemia ip, CD2F1 mice, survival T/C", "96 % of control"],
  ["O=C1Nc2c(Cl)cc(Cl)cc2/C1=N/N=C/c1ccco1", "P388 leukemia ip, CD2F1 mice, survival T/C", "101 % of control"],
  ["COCCn1nc(-c2ccc(Cl)cc2)c(-c2ccc(Cl)cc2)c(C(C)=O)c1=O", "P388 leukemia ip, CD2F1 mice, survival T/C", "100 % of control"],
  ["CCOC(=O)/C(C)=C1\\N=C(c2ccccc2)OC(=NC2CCCCC2)N1C1CCCCC1", "P388 leukemia ip, CD2F1 mice, survival T/C", "96 % of control"],
  ["Brc1cccc2[s+]snc12", "P388 leukemia ip, CD2F1 mice, survival T/C", "101 % of control"],
  ["Cc1ccc2[nH]c3nc4cc(C)c(C)cc4nc3c2c1", "P388 leukemia ip, CD2F1 mice, survival T/C", "96 % of control"],
  ["O=[N+]([O-])c1ccc(N=Nc2ccc(NNc3ccc([N+](=O)[O-])cn3)c3cc4ccccc4cc23)nc1", "P388 leukemia ip, CD2F1 mice, survival T/C", "100 % of control"],
  ["CC1=NN(c2ccc(Cl)cc2)C(=O)/C1=C\\c1c(C)[nH]n(-c2ccc(Cl)cc2)c1=O", "P388 leukemia ip, CD2F1 mice, survival T/C", "110 % of control"],
  ["COc1ccc2[nH]c3c(c2c1)C(c1ccccc1)c1ccccc1-3 (stereo unspecified)", "P388 leukemia ip, CD2F1 mice, survival T/C", "90 % of control"],
  ["CC(N1CCS(=O)(=O)CC1)P(=O)(O)O (stereo unspecified)", "P388 leukemia ip, CD2F1 mice, survival T/C", "90 % of control"],
  ["CC1CCCN2C(=O)CN(Cc3ccccc3)CC(=O)N12 (stereo unspecified)", "P388 leukemia ip, CD2F1 mice, survival T/C", "100 % of control"]
]}
